In this section we review reported protein stability index values for a set of variants.
B1: ANKRD40 (parent)
chain: YQELLRVCCCELGVNPDQVEKIRK

Variants of: B1
Assay: protein stability index of a GFP-peptide fusion (GPS, HEK-293T) (PSI 1-6); higher = more stable;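 note: lentivirally expressed fusions sorted by FACS into six bins by GFP to DsRed ratio, PSI derived from sequencing read proportions per bin multiplied by bin number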
Settings: c terminus: a fixed tail appended

# example entries with known answers
# SEQ_STRING, protein stability index
rows = [
    ("YQELMRVCCCELGVNPDQVEKIRK [L5M]", 2.41),
    ("YQELLRVCCCELGVNPCQVEKIRK [D17C]", 2.01),
    ("YQELLRVCCCELGVMPDQVEKIRK [N15M]", 2.21),
    ("YQELLRVCCCELGVNPDQVEKPRK [I22P]", 1.18),
    ("YQHLLRVCCCELGVNPDQVEKIRK [E3H]", 2.01),
    ("YQELLRVCCCELGVNIDQVEKIRK [P16I]", 1.52),
    ("EQELLRVCCCELGVNPDQVEKIRK [Y1E]", 3.69),
    ("YQELLRVWCCELGVNPDQVEKIRK [C8W]", 2.02),
]

Query block: # query: protein stability index of entry YQELLRVCNCELGVNPDQVEKIRK [C9N]
Result block: 2.15

Query block: Report protein stability index for YQELLRVCCCELGVNPDQVEKIRT [K24T] please.
Result block: 2

Query block: Entry FQELLRVCCCELGVNPDQVEKIRK [Y1F] : reported protein stability index = ?
Result block: 1.99

Query block: Could you tell me which protein stability index is on file for YQELLRVCCCELGVNTDQVEKIRK [P16T] ?
Result block: 1.29

Query block: What measured protein stability index goes with YQELLIVCCCELGVNPDQVEKIRK [R6I] ?
Result block: 1.49

Query block: // protein stability index lookup, key: YQELLRVCCCELGVNPDQVEKKRK [I22K]
Result block: 2.43

Query block: Need protein stability index of YQELLRVCCCELAVNPDQVEKIRK [G13A] , thanks.
Result block: 2.08
